# ASSAY_OVERVIEW: Plasma pharmacokinetics of endoxifen after administration of the compositions
# Format: in vivo
# RECORDED_CONDITIONS: human, plasma; dosing range of 1 mg to 4 mg of (Z)-endoxifen
REPORTED_ENDPOINT: AUC(0-inf)

Q: Entry CC/C(=C(\c1ccc(O)cc1)c1ccc(OCCNC)cc1)c1ccccc1 [(Z)-endoxifen] needs its AUC(0-inf) filled in; supply it.
Ans: 400 to 6000 ng·h/mL

Hello, the source for this data is patent US20260151360A1, in case you need it.
